Assay: In vitro drug metabolism in rat liver extract
Type: in vitro ADME, male Wistar rats
Conditions: pH 7.4; 60 min., rat liver extract, 37° C.; read-out: Residual amount of test compound, 60 min.
Procedure: 2. In vitro drug metabolism in rat liver extract The resistance of the compound against metabolic degradation by rat liver extract was investigated. The male Wistar rats (weighing about 200 g) were used after fasting for 24 hours. The rat was sacrificed under ether anesthesia, and the livers were removed and were placed onto the ice. […]
MEASURED_PARAMETER: remaining at 1 h (%)

Take a look at these entries with their results.
COc1cc(-c2cnn3c(O)ncnc23)ccc1Sc1ccccc1 [Compound A3, reference compound] ... 16.5
COc1cc(-c2cnn3c(O)ncnc23)ccc1Cc1cccc(C)c1 ... 90.8

[P] COc1cccc(Cc2ccc(-c3cnn4c(O)ccnc34)cc2)c1
[Q] COc1cccc(Cc2ccc(-c3cnn4c(O)ncnc34)cc2OC)c1
**Query** Between these two entries, P and Q , state which has the higher remaining at 1 h. Your answer should be the label attached to the chosen record.
**Result** Q
(Q: 87.9%, P: 53.4%)

[P] Oc1ncnc2c(-c3ccc(Cc4ccccc4)cc3)cnn12
[Q] Cc1cc(-c2cnn3c(O)ncnc23)ccc1Sc1ccccc1 [Compound A2, reference compound]
**Query** // returns P or Q , whichever has the lower remaining at 1 h Your answer should be the label attached to the chosen record.
**Result** Q

[P] Cc1ccccc1Cc1ccc(-c2cnn3c(O)ncnc23)cc1
[Q] COc1cc(-c2cnn3c(O)ccnc23)ccc1Sc1ccccc1 [Compound B2, reference compound]
[R] Cc1cc(-c2cnn3c(O)ncnc23)ccc1Cc1ccccc1
**Query** Order each entry by recorded remaining at 1 h, climbing from the minimum. The labels, placed in the requested order, form the answer.
**Result** Q, P, R

---

assay: In vitro drug metabolism in rat liver extract; type: in vitro ADME, male Wistar rats; details: pH 7.4; half-life in the rat liver extract, 37° C.; read-out: Half-time period
MEASURED_PARAMETER: half-life (min)

Take a look at these entries with their results.
COc1cc(-c2cnn3c(O)ncnc23)ccc1Cc1ccccc1 [Example 4] ... 30
CC(c1ccccc1)c1ccc(-c2cnn3c(O)ncnc23)cc1 (stereo not drawn) [Example 19] ... 52

[I] Cc1cc(-c2cnn3c(O)ccnc23)ccc1Sc1ccccc1 [Compound B1, reference compound]
[II] Oc1ncnc2c(-c3ccc(Sc4ccccc4)cc3)cnn12 [Compound A1, reference compound]
**Query** // returns I or II , whichever has the lower half-life Your answer should be the label attached to the chosen record.
**Result** II

---

assay: In vitro drug metabolism in rat liver extract; format: in vitro ADME, male Wistar rats; details: pH 7.4; 60 min., rat liver extract, 37° C.; read-out: Residual amount of test compound, 60 min.
MEASURED_PARAMETER: remaining at 1 h (%)

COc1cc(-c2cnn3c(O)ncnc23)ccc1Cc1ccccc1 ... 38.2
COc1cccc(Cc2ccc(-c3cnn4c(O)ncnc34)cc2C)c1 ... 55.2

[I] COc1ccc(Cc2ccc(-c3cnn4c(O)ncnc34)cc2)cc1
[II] Oc1ncnc2c(-c3ccc(Sc4ccccc4)cc3)cnn12 [Compound A1, reference compound]
**Query** // returns I or II , whichever has the lower remaining at 1 h Your answer should be the label attached to the chosen record.
**Result** II
(II: 13%, I: 52.4%)

---

molecular target: rat prostate androgen receptor (Rattus norvegicus, UniProt P15207); conditions: 1 nM ^3 H-mibolerone, 20 hours at 0° C., rat ventral prostate cytosol; read-out: Inhibitory activity on mibolerone specific binding [IC50 (M)]
Sequence (P15207 whole entry S389L): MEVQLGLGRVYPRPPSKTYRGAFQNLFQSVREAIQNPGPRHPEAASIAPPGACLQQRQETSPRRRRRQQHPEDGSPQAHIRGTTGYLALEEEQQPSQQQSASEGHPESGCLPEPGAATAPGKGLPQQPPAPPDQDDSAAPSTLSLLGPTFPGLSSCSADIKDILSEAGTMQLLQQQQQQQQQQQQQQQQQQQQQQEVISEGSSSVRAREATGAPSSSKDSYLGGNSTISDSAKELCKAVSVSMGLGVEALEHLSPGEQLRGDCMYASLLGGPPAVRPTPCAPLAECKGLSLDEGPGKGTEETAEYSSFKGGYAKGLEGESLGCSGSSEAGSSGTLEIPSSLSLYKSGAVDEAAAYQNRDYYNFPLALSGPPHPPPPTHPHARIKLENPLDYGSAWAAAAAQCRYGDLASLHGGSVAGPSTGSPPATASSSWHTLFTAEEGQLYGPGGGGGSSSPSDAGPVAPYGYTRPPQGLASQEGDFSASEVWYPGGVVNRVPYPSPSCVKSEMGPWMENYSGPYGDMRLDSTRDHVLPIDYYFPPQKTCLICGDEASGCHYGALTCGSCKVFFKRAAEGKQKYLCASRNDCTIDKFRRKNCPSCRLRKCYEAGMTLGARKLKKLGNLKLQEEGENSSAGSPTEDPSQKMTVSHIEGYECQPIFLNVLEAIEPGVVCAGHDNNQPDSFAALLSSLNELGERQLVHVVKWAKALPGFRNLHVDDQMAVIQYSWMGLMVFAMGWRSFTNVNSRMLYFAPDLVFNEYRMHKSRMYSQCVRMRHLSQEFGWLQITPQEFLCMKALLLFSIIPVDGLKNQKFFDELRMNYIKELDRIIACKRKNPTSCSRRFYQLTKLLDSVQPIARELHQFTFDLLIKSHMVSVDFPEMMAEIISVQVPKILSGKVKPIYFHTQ
MEASURED_PARAMETER: IC50 (M)

COc1cccc(Cc2ccc(-c3cnn4c(O)ncnc34)cc2OC)c1 ... 1.8e-08

[I] Oc1ncnc2c(-c3ccc(Cc4ccccc4)cc3)cnn12
[II] COc1cc(Cc2ccc(-c3cnn4c(O)ncnc34)cc2)cc(OC)c1
[III] Cc1cccc(Cc2ccc(-c3cnn4c(O)ncnc34)cc2C)c1
[IV] Cc1cc(-c2cnn3c(O)ncnc23)ccc1Cc1ccccc1
**Query** Order each entry by recorded IC50, climbing from the minimum. The labels, placed in the requested order, form the answer.
**Result** III, IV, I, II
(III: 2e-08 M, IV: 3e-08 M, I: 2.8e-07 M, II: 7.7e-07 M)

[1] Cc1ccc(Cc2ccc(-c3cnn4c(O)ncnc34)cc2)cc1
[2] COc1cc(-c2cnn3c(O)ncnc23)ccc1Cc1cccc(C)c1
**Query** // returns 1 or 2 , whichever has the lower IC50 Your answer should be the label attached to the chosen record.
**Result** 2
